System: NOMO1
assay: AUC of viability dose-response curve (% viability x log10 dose units); higher = less sensitive
testSettings: RPMI 5 mM glucose + 10% FBS; 48 h
Kindly state AUC of viability dose-response curve for each of the entries shown.
Field format: numeric only.

[Q] Look up AUC of viability dose-response curve for this compound: CN(C)C(=O)[C@H](O)[C@H](Cc1ccccc1)NC(=O)c1cc2cc(Cl)ccc2[nH]1
[A] 456

[Q] How about CC1(C)CCC(C)(C)c2cc(NC(=O)c3ccc(C(=O)O)cc3)ccc21 ?
[A] 445

[Q] Now give it for c1ccc2c(CCNc3ccc(Nc4ccncc4)cc3)c[nH]c2c1 too.
[A] 430

[Q] Now consider COc1nc(N)nc2c1ncn2[C@@H]1O[C@H](CO)[C@@H](O)[C@@H]1O and answer again.
[A] 444

[Q] Same question for COc1cc2c(cc1O)CCC1C2CC[C@@]2(C)C1CC[C@@H]2O (stereo partly specified) please.
[A] 412

[Q] Here is the next compound: Nc1nccc(-c2ccc3noc(-c4ccc(Cl)cc4)c3c2)n1
[A] 464

[Q] Another compound: CC[C@H]1OC(=O)[C@H](C)[C@@H](O[C@H]2C[C@@](C)(OC)[C@@H](O)[C@H](C)O2)[C@H](C)[C@@H](O[C@@H]2O[C@H](C)C[C@H](N(C)C)[C@H]2O)[C@](C)(O)C[C@@H](C)/C(=N\OCOCCOC)[C@H](C)[C@@H](O)[C@]1(C)O
[A] 424

[Q] Continue with Cn1cnc(N)c2ncnc1-2
[A] 406

[Q] Moving on to the next compound: CN1CCC(CNc2ccc3ncc(-c4cccc(OC(F)(F)F)c4)n3n2)CC1
[A] 399

[Q] Repeat with CC[C@H](C)C(=O)O[C@H]1C[C@@H](C)\C=C2\C=C/[C@H](C)[C@H](CC[C@@H]3C[C@@H](O)CC(=O)O3)[C@@H]12
[A] 411

[Q] Ok, now c1coc(CNc2ncnc3nc[nH]c23)c1
[A] 461

[Q] Try this compound next: COc1ccc([S+](=O)([O-])Nc2cc(-c3c(O)ccc4ccccc34)c(O)c3ccccc23)cc1
[A] 453

[Q] Now the same for CCc1cnn2c(NCc3ccc[n+]([O-])c3)cc(N3CCCC[C@H]3CCO)nc12
[A] 231

[Q] Further, for CO[C@H]1C[C@@H]2CC[C@@H](C)[C@@](O)(O2)C(=O)C(=O)N2CCCC[C@H]2C(=O)O[C@H]([C@@H](C)C[C@@H]2CC[C@@H](O)[C@H](OC)C2)CC(=O)[C@H](C)/C=C(\C)[C@@H](O)[C@@H](OC)C(=O)[C@H](C)C[C@H](C)/C=C/C=C/C=C/1C ?
[A] 442

[Q] Further, for Cc1cccc(-c2[nH]c(C(C)(C)C)nc2-c2ccc3nccnc3c2)n1 ?
[A] 430

[Q] Now consider CCN(CC)CCCC(C)Nc1ccnc2cc(Cl)ccc12 (stereo unspecified) and answer again.
[A] 416

###

System: P12-Ichikawa
assay: cell viability relative to DMSO control; higher = less cytotoxic
testSettings: HPLM + 10% dialyzed FBS; 48 h; 46.1 µM
Field: cell viability. Provide a value for each of the compounds that follow.
Give the value, in units of %, as a plain number.

[Q] Short answer please: cell viability, P12-Ichikawa, entry c1cc2c(cc1[C@H]1OC[C@H]3[C@@H]1CO[C@@H]3c1ccc3c(c1)OCO3)OCO2
[A] 122

[Q] Also check Nc1cc(N2CCCCC2)nc(N)[n+]1[O-]
[A] 122

[Q] Would you mind doing OC[C@H]1OC(O)C[C@@H](O)[C@@H]1O (stereo partly drawn) as well?
[A] 107

[Q] Then what about the compound O=C(Nc1cccnc1)N1CCC(Cc2cccc(Oc3ccc(C(F)(F)F)cn3)c2)CC1 ?
[A] 15.5

[Q] Now this one: C[C@@H]1CC[C@@]2(CC[C@]3(C)\C(=C/C[C@@H]4[C@@]5(C)C[C@@H](O)[C@H](O)[C@@](C)(CO)[C@@H]5CC[C@@]34C)[C@@H]2[C@H]1C)C(O)=O
[A] 112

[Q] Please give the result for COc1cccc(OC)c1-c1cc(C(=O)NC2(C(=O)O)C3CC4CC(C3)CC2C4)nn1-c1ccnc2cc(Cl)ccc12 (stereo not drawn) too.
[A] 86.1

[Q] What do we get for Cc1nc(-c2ccc(-c3ccc(C(=O)N4CCc5cc6c(cc54)C4(CCN(C)CC4)CO6)cc3)c(C)c2)no1 ?
[A] 120

[Q] Param item: NC[C@H](O)c1ccc(O)c(O)c1
[A] 83.5

The reported numbers originate from the supplement of paper PMC11451515.
